FYI, the data here is from patent US9079866B2.

Target: human FLAP (Homo sapiens (Human), UniProt P20292)
Sequence (P20292 whole entry): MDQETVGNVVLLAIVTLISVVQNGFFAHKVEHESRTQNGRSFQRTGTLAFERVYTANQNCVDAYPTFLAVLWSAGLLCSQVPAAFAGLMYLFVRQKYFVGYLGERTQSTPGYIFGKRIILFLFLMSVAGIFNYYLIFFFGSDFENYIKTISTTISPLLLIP
Assay: FLAP binding assay (HTRF format)
Details: human FLAP wild type, HTRF format; average of two plates, duplicates
Structures can show the parent of a compound that is named as a salt.
measuredProperty: Ki (nM)

Below, 10 molecules whose answers are already recorded.
> print(dat)
                                    molecule  recordedvalue
 1  Nc1cnc(-c2ccc(-c3ccccc3S(=O)(=O)N3C[C@@H]4C[C@H]3CN4)cc2F)cn1            144
 2  CC(=O)N1CCN(S(=O)(=O)c2ccccc2-c2ccc(-c3cnc(N)cn3)c(F)c2)CC1             15
 3  CC(C)CS(=O)(=O)Nc1ccccc1-c1ccc(-c2cnc(N)cn2)c(F)c1             30
 4  CC1(NS(=O)(=O)c2ccccc2-c2ccc(-c3cnc(N)cn3)c(F)c2)CCC1              2
 5  Nc1cnc(-c2ccc(-c3ccccc3S(=O)(=O)N3CCC(CO)CC3)cc2F)cn1              1
 6  Nc1cnc(-c2ccc(-c3ccccc3S(=O)(=O)N3CCC(N)CC3)cc2F)cn1             49
 7  CC(NS(=O)(=O)c1ccccc1-c1ccc(-c2cnc(N)cn2)c(F)c1)C(F)(F)F (racemic)              1
 8  Nc1cnc(Sc2ccccc2-c2ccc(-c3cnc(N)cn3)c(F)c2)nc1 [Example 219, hydrochloride]              5
 9  Nc1cnc(-c2ccc(-c3ccccc3S(=O)(=O)N3CCN(C(=O)C4CC4)CC3)cc2F)cn1              5
10  Nc1cnc(-c2ccc(-c3ccccc3S(=O)(=O)N[C@@H]3CCCC[C@@H]3CO)cc2F)cn1 (racemic)              1

a. CC(C)N(CCO)S(=O)(=O)c1ccccc1-c1ccc(-c2cnc(N)cn2)c(F)c1
b. Nc1cnc(-c2ccc(-c3ccccc3S(=O)(=O)NC[C@H](O)CO)cc2F)cn1
c. Nc1cnc(-c2ccc(-c3ccccc3S(=O)(=O)NCCCCCO)cc2F)cn1
d. CN(C)S(=O)(=O)Nc1ccccc1-c1ccc(-c2cnc(N)cn2)c(F)c1
Qu. Sort the molecules on Ki; start with the lowest figure. Present the labels in the sequence the task asks for.
Ans. a, c, b, d

----------
Target: human FLAP (Homo sapiens (Human), UniProt P20292)
Assay: FLAP binding assay (HTRF format)
Conditions: human FLAP wild type, HTRF format; average of two plates, duplicates
Counter-ions that a name gives are not always drawn.
measuredProperty: Ki (nM)

Solved entries (count: 4):
> print(dat)
                                   compound  valueunit  recordedvalue
1  C[C@H](O)CNS(=O)(=O)c1ccccc1-c1ccc(-c2cnc(N)cn2)c(F)c1 [Example 98]         nM              8
2  CCCCCCS(=O)(=O)Nc1ccccc1-c1ccc(-c2cnc(N)cn2)c(F)c1 [Example 39]         nM              8
3  C[C@@H]1CNCCN1S(=O)(=O)c1ccccc1-c1ccc(-c2cnc(N)cn2)c(F)c1 [Example 145]         nM             17
4  C[C@H](CO)NS(=O)(=O)Cc1ccccc1-c1ccc(-c2cnc(N)cn2)c(F)c1 [Example 225, hydrochloride]         nM            856

a. Nc1cnc(-c2ccc(-c3ccccc3S(=O)(=O)N[C@H]3CCCC[C@@H]3O)cc2F)cn1 (racemic) [Example 120]
b. CS(=O)(=O)c1cc(C(F)(F)F)ccc1-c1ccc(-c2cnc(N)nc2)c(F)c1 [Example 323]
Qu. Between a and b , which one shows the smaller Ki number? Give the chosen item's label as your response.
Ans. a
(a: 1 nM, b: 770 nM)
